pKi: −log10 of the molar value.
Outcome measure: pKi

Task item: Recall the reported pKi of "O=C1N/C(=C\c2ccc(CN3CCCC3)cc2)C(=O)N1c1ccc(Oc2ccccc2)cc1" when tested on Melanin-concentrating hormone receptor 2 (Homo sapiens).
Sequence (Q969V1 whole entry): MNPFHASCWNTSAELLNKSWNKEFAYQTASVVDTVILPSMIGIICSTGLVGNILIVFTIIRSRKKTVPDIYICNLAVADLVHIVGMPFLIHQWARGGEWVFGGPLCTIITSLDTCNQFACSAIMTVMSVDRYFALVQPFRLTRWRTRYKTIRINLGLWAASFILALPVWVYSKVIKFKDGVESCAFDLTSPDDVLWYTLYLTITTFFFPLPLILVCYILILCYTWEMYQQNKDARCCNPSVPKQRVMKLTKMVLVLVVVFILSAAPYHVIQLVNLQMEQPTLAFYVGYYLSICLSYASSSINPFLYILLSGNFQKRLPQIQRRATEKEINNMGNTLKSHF
Reply: < 5.00

====

- Target of assay: 5-hydroxytryptamine receptor 2A (Homo sapiens)
- Sequence (P28223 whole entry): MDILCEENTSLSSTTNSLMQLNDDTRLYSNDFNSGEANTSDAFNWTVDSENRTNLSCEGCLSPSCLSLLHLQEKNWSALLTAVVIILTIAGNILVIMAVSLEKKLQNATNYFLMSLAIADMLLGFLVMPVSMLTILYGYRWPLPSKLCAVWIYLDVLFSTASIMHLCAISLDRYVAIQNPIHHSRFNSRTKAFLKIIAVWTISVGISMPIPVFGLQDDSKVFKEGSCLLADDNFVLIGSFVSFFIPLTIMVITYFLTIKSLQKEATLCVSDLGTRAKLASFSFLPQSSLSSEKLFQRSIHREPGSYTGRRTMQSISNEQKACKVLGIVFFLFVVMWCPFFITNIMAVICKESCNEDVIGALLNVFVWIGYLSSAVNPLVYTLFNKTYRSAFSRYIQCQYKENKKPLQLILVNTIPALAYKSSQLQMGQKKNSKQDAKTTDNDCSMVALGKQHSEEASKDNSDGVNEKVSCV
- Assay procedure: Binding affinity to 5HT2A receptor
Outcome measure: Ki

Task item: Given the compound "O=C1N/C(=C\c2ccc(CN3CCCC3)cc2)C(=O)N1c1ccc(Oc2ccccc2)cc1" , write its reported Ki.
Reply: > 5 µM

====

- Target of assay: Melanin-concentrating hormone receptor 1 (Homo sapiens, UniProt Q99705)
- Sequence (Q99705 whole entry): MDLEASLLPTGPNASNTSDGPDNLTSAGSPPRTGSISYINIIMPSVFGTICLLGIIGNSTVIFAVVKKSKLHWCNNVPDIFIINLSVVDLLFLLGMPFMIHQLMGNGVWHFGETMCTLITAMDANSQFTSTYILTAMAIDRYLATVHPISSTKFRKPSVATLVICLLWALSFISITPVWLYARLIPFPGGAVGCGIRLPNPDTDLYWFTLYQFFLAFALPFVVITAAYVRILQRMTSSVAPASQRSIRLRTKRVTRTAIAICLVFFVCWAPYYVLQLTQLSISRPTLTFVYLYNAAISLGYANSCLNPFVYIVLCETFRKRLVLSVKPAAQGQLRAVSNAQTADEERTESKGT
- Assay procedure: Displacement of [125I][Phe13, Tyr19]MCH from human recombinant MCHR1 expressed in CHO cells
Outcome measure: pKi
// pKi here means minus log10 of the molar concentration (mol/L)

Task item: Tell me pKi reported for "O=C1N/C(=C\c2ccc(CN3CCCCCC3)cc2)C(=O)N1c1ccc(Oc2ccccc2)cc1"
Reply: 6.45

Task item: // fetch pKi given entry "CN(C)CCNCc1ccc(/C=C2\NC(=O)N(c3ccc(Oc4ccccc4)cc3)C2=O)cc1"
Reply: 6.15

Task item: Give recorded pKi. "COc1cc(N2CC(=O)N(c3ccc(Oc4ccccc4)cc3)C2=O)ccc1OCCN1CCCC1"
Reply: 6.79

====

- Assay procedure: Binding affinity to L-verapamil site of calcium channel
- Parameters: species or system Homo sapiens
Outcome measure: pKi
Expect pKi as a plain number equal to -log10 of the molar concentration.

Task item: Given "O=C1N/C(=C\c2ccc(CN3CCCC3)cc2)C(=O)N1c1ccc(Oc2ccccc2)cc1" , respond with its pKi.
Reply: 6.48
